Cited source: the C3SDB collision cross section collection

- Settings: [M-H]-; instrument: DT; single field, calibrated with ESI Low Concentration Tuning Mix (Agilent)
Reported metric: collision cross section (N2) (Å²)

Solved entries (count: 3):
O=C(O)[C@H](O)[C@@H](O)[C@H](O)[C@H](O)CO [GLUCONATE] ... 132.4
Cn1c(=O)c2[nH]cnc2n(C)c1=O ... 132
O=C(O)c1c[nH]c(=O)[nH]c1=O [URACIL 5-CARBOXYLATE] ... 118.9

A. OC[C@@H](O)[C@H](O)[C@H](O)[C@@H](O)CO
B. C=CC1=C(C)C(/C=c2\[nH]/c(=C\c3[nH]c(/C=C4\NC(=O)C(C)=C4C=C)c(C)c3CCC(=O)O)c(CCC(=O)O)c2C)=NC1=O
When their collision cross section (N2) values are compared, which is larger, A or B ? Write the label of whichever entry you select. B
(B: 246 Å², A: 130.5 Å²)
